system: firefly luciferase (FLuc); test: normalised percent inhibition of luminescence (vs positive and negative controls); higher = stronger inhibition; conditions: metal salt concentration 0.05 mM; 100 mM HEPES buffer
Provide the recorded normalised percent inhibition for the entries that follow.
Answers are plain numbers, in %.

| Compound | Result Units | normalised percent inhibition |
| --- | --- | --- |
| O=S(=O)([O-])[O-].[Fe+2] [iron(II) sulfate] | % | 100 |

Required: normalised percent inhibition, one value per compound below.
1. CC#N.CC#N.CC#N.CC#N.F[B-](F)(F)F.[Cu+] [tetrakis(acetonitrile)copper(I) tetrafluoroborate]
2. [Cl][Fe]([Cl])[Cl] [iron(III) chloride]
3. O=[N+]([O-])[O-].O=[N+]([O-])[O-].[Pb+2] [lead(II) nitrate]
4. O=[N+]([O-])[O-].O=[N+]([O-])[O-].[Cu+2] [copper(II) nitrate]

Output:
1: 100; 2: 99.6; 3: 94.7; 4: 101
